Tested on: CCRF-CEM
measurement.protocol: NCI tumour cell line growth inhibition, 48 h
Active and inactive are the calls of the source. Rule as the data show it: active = GI50 up to about 1.1 µM and inactive = higher.
Possible outcomes: active, inactive

>  <chemical.smiles>
Cc1ccc2c(c1C)-c1c(ccc(C)c1C)C(=O)C2=O

>  <label>
active

$$$$
>  <chemical.smiles>
N=C(N)SCc1cn2ccccc2n1

>  <label>
inactive

$$$$
>  <chemical.smiles>
O=C1CN(/N=C/c2ccc(-c3ccc(F)cc3)o2)C(=O)N1

>  <label>
inactive

$$$$
>  <chemical.smiles>
CN(C)c1ccc(/N=N/c2ccncc2)cc1

>  <label>
inactive

$$$$
>  <chemical.smiles>
O=[N+]([O-])c1ccc(-c2csc3nc(-c4ccccc4)nn23)cc1

>  <label>
inactive

$$$$
>  <chemical.smiles>
N#CCN1CCN(CC#N)CCN(CC#N)CCN(CC#N)CC1

>  <label>
inactive

$$$$

Value source: ChEMBL document CHEMBL1201862
